assay.procedure: NCI Yeast Anticancer Drug Screen. Data for the bub3 strain (AID 167)
conditions.used: S. cerevisiae bub3 mutant strain, at 50.0 µM, stronger effect = higher value
About 79,000 compounds went through this panel and 15% of them were active in at least one assay; those are over-represented in the sample as a whole.
Exercise: state measured growth inhibition for each of the molecules provided.
All answers are understood in %, so give the number only.

What does the record list as growth inhibition for COc1cc(/C=C(/C#N)C(N)=O)cc(OC)c1OC ?
11.1

Given the entry Cc1cc2nc3c(=O)[nH]c(=O)nc-3n(CCOC(=O)CCC(=O)O)c2cc1C , report its measured growth inhibition.
3.1

Query (molecule): O=C1NC(=O)C2C1C1C=C3c4ccccc4N(c4ccccc4)C32[C@H]2C(=O)NC(=O)[C@@H]12 (stereo not given in full) ; field requested: growth inhibition
17.4

Bench note: what growth inhibition did O=[N+]([O-])c1ccc(N=Nc2c(O)[nH]c3ccc(Br)cc23)c([N+](=O)[O-])c1 show?
-20.6

Requested field: growth inhibition. Item: C[C@]12CCC(=O)C=C1CC[C@@H]1[C@@H]2CC[C@]2(C)C(=O)NC(=O)C[C@@H]12
-3

Entry under review: O=C(Nc1cccc2ccccc12)OCC1CC1 . Reported growth inhibition?
-34.9

I am curious: what growth inhibition value has been reported for O=C1NC(=O)C2(CCCCCC2)N1 ?
-4.1

Please give the measured growth inhibition for this molecule: O=[N+]([O-])c1ccc(OC(=S)Oc2ccc([N+](=O)[O-])cc2)cc1
-0.05

Using the record for Cn1c(=O)c2[nH]c(=S)n(C)c2n(C)c1=O , report its growth inhibition.
-13.6

Please look up its growth inhibition: CN(Cc1cnc2nc(N)nc(N)c2n1)c1ccc(C(=O)NC(CCC(=O)NC(CCC(=O)NC(CCC(=O)NC(CCC(=O)O)C(=O)O)C(=O)O)C(=O)O)C(=O)O)cc1 (stereo not given)
-41.6

Which growth inhibition is reported for this molecule? O=P(OC1=NCCN1Cc1ccccc1)(OC1=NCCN1Cc1ccccc1)N1CC1
3.75

Need growth inhibition, item CC1CCC(C(C)C)N(C)CC1 (stereo not given)
-8.15

So what does the record say about growth inhibition for C=C(C)CNC(C)=O ?
3.4

What does the data say about its growth inhibition? Entry: CN(N)C(=O)NCCCl
-28

Endpoint output: growth inhibition of CC1=C(C(=O)Nc2ccccc2C)C(c2ccccc2C)C(C(=O)Nc2ccccc2C)=C(C)N1 . Value?
64.3

Entry CCOC(=O)c1c2cccccc-2nc1Nc1cccc2c(C)ccnc12 has what growth inhibition?
-16.1

Fill blank: measured growth inhibition of the molecule C#CC(CCC)NC(C)(C)C (stereo not given) is ____.
1.95

I have this molecule here, COc1cc(O)c(OC)c(O)c1C(C)=O , and I need its recorded growth inhibition.
2.25

Requested read-out: growth inhibition. Entry: O=C1COc2cccnc2N1
14.7

What does the data say about its growth inhibition? Entry: COc1ccc(NC(=O)N2CC3CCN2CC3)cc1
-12.7
